# measurementDescription: Novel Modifiers of Survival Motor Neuron (SMN) Protein: Gene Identification via Genome-wide siRNA Screen;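 also: luminescence tracks full-length SMN protein made from the SMN2 reporter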
# appliedConditions: HEK293T SMN2-luciferase reporter, siRNA knockdown, 72 h; actives lie on both sides
Out of some 31,000 sequences screened, about 1,400 (4.5%) were called active.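 The calls were made as follows: active = median seed-adjusted z-score above 1 or below -1; inactive = the rest.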 This excerpt belongs to a sample that is enriched for actives.
Hi there, use one of these labels in your reply, thanks! active, inactive

Field: outcome | Entry: CUAUGGUAGCGACACUGCATT against LILRB1
inactive

Field: outcome | Entry: GAUGAUCGCUUCAACCUGATT against DDX6
active

Field: outcome | Entry: CGUGGAAGGUGAGUAAUAATT against ZBTB40
inactive

Field: outcome | Entry: CAUAGAUUCUGUACGGCAATT against MPP5
inactive

Field: outcome | Entry: GGACAAGUAGCAAAGCGAATT against SLC7A14
inactive

Field: outcome | Entry: GAAACCAUCGGGAAGAUUUTT against VWA2
inactive

Field: outcome | Entry: CCAGCUUGCUUGUGUAUAATT against PPP1R14A
inactive

Field: outcome | Entry: CGAACGAUUUCCCAAGUUATT against NXF1
active

Field: outcome | Entry: GAAAUUUGCGUGUGGAGUATT against TP53
inactive

Field: outcome | Entry: GGAUUUGCCCUGACAAAAATT against ZRANB2
inactive

Field: outcome | Entry: GGAAGAAUGUGGUUUGCGATT against GFOD2
inactive

Field: outcome | Entry: CUUCCUUCGUCUUCACCUATT against FOS
inactive

Field: outcome | Entry: CCUUCUCCGUGAUUGAGGATT against LGI4
inactive

Field: outcome | Entry: AAGCAUAAUUUGUACAGCUTT against NMNAT1
inactive

Field: outcome | Entry: GGAAAGACAUGUAAGAGCATT against BMP8B
inactive

Field: outcome | Entry: CCUCAACUCUUAUAUUACATT against ZNF595
inactive

Field: outcome | Entry: GGAAAAAUCUAAGAAGCAATT against ZC3H11A
inactive

Field: outcome | Entry: GCCUGUCCCAGACCAUUGATT against KLC4
inactive

Field: outcome | Entry: UGACCUUUCCUAUCUAUAATT against MCART6
inactive

Field: outcome | Entry: GCAUGGUAAUUUAUAGUUUTT against NGF
inactive

Field: outcome | Entry: GCACUAUCCAGUUUGUGGATT against TUBA3E
inactive

Field: outcome | Entry: GAGUGUAUGUGAUCAUCGATT against PRKCE
inactive

Field: outcome | Entry: CAAGAAUCAUUAAUACAAATT against CCL2
inactive

Field: outcome | Entry: GGCACGUCCUGUUACACCATT against LMO4
inactive

Field: outcome | Entry: UCAUGAACAUUGUCAAUGATT against ADAMTS2
inactive

Field: outcome | Entry: GCACAUAAGGAGGCGAUUATT against WDR33
active

Field: outcome | Entry: GCAGCUAUUUGUCUCCGAATT against USP43
inactive

Field: outcome | Entry: GGAAACUCUGUUUACGUUATT against BTAF1
active

Field: outcome | Entry: GGUUCUCUUGCAUUACUUUTT against GLP2R
inactive

Field: outcome | Entry: GAGCUUCACUCAAAAAUCATT against ZNF160
inactive

Field: outcome | Entry: GAAUCACUCUUUGACAACATT against SLC2A13
inactive

Field: outcome | Entry: UGGAGUAUCCUAUCAUGUATT against MGST3
inactive

Field: outcome | Entry: GAACAUUGGUUCUUAGAGATT against MKRN2
inactive

Field: outcome | Entry: CGUCCAUACUUACCUAAUUTT against UGT2A1
inactive

Field: outcome | Entry: GCCUAUGAUUUAGGACUAATT against MNDA
inactive

Field: outcome | Entry: CAUGAACCCUUGGUAGAUATT against TBRG1
active

Field: outcome | Entry: GCAUCGUCAAGGAUUGGAATT against ACTR1A
active

Field: outcome | Entry: GCACCGUCUAUGUCACCAUTT against GAL3ST3
inactive

Field: outcome | Entry: GAACCAGGAGAGAAUAGAATT against PDGFRL
inactive

Field: outcome | Entry: CGCUCACAGUCAUACACGUTT against SLC39A7
inactive

Field: outcome | Entry: CGGUCCAAAUUGAAAGCGATT against STX1B
inactive

Field: outcome | Entry: GGCUUGAGAGCUUACAUCATT against PPP2R5C
active

Source of measurements: PubChem BioAssay AID1347426
